assay_summary: Observed AUC infinity in CD-1 mouse at 10 mg/kg, po
Format: ADME, organism-based
Set-up: dose 10 mg/kg, route po
condition_parameters: in vivo
measured_quantity: AUC(0-inf) (ng·h/mL)
// units = ng·h/mL; emit number, no label

Entry Cc1ccc(-n2nc(C(=O)N[C@@H]3CCCC[C@H]3NC(=O)c3nc(-c4ccc5c(c4)N(C4CCCC4)[C@H](C)C(=O)N5C)n(-c4ccc(C)cc4)n3)nc2-c2ccc3c(c2)N(C2CCCC2)[C@H](C)C(=O)N3C)cc1 needs its AUC(0-inf) filled in; supply it. 278

Entry Cc1ccc(-n2nc(C(=O)NCCCNC(=O)c3nc(-c4ccc5c(c4)N(C4CCCC4)[C@H](C)C(=O)N5C)n(-c4ccc(C)cc4)n3)nc2-c2ccc3c(c2)N(C2CCCC2)[C@H](C)C(=O)N3C)cc1 needs its AUC(0-inf) filled in; supply it. 75.8

Entry Cc1ccc(-n2nc(C(=O)N3C[C@H](C)N(C(=O)c4nc(-c5ccc6c(c5)N(C5CCCC5)[C@H](C)C(=O)N6C)n(-c5ccc(C)cc5)n4)C[C@H]3C)nc2-c2ccc3c(c2)N(C2CCCC2)[C@H](C)C(=O)N3C)cc1 needs its AUC(0-inf) filled in; supply it. 4620

Entry Cc1ccc(-n2nc(C(=O)N3CCN(C(=O)c4nc(-c5ccc6c(c5)N(C5CCCC5)[C@H](C)C(=O)N6C)n(-c5ccc(C)cc5)n4)[C@H](C)C3)nc2-c2ccc3c(c2)N(C2CCCC2)[C@H](C)C(=O)N3C)cc1 needs its AUC(0-inf) filled in; supply it. 4170

Entry Cc1ccc(-n2nc(C(=O)N3CCN(C(=O)c4nc(-c5ccc6c(c5)N(C5CCCC5)[C@H](C)C(=O)N6C)n(-c5ccc(C)cc5)n4)CC3)nc2-c2ccc3c(c2)N(C2CCCC2)[C@H](C)C(=O)N3C)cc1 needs its AUC(0-inf) filled in; supply it. 372

Entry Cc1ccc(-n2nc(C(=O)N3CCCN(C(=O)c4nc(-c5ccc6c(c5)N(C5CCCC5)[C@H](C)C(=O)N6C)n(-c5ccc(C)cc5)n4)CC3)nc2-c2ccc3c(c2)N(C2CCCC2)[C@H](C)C(=O)N3C)cc1 needs its AUC(0-inf) filled in; supply it. 371

Entry Cc1ccc(-n2nc(C(=O)N(C)CCN(C)C(=O)c3nc(-c4ccc5c(c4)N(C4CCCC4)[C@H](C)C(=O)N5C)n(-c4ccc(C)cc4)n3)nc2-c2ccc3c(c2)N(C2CCCC2)[C@H](C)C(=O)N3C)cc1 needs its AUC(0-inf) filled in; supply it. 129
